- System Under Test: UniProt:P11229
- Sequence (P11229 1-460): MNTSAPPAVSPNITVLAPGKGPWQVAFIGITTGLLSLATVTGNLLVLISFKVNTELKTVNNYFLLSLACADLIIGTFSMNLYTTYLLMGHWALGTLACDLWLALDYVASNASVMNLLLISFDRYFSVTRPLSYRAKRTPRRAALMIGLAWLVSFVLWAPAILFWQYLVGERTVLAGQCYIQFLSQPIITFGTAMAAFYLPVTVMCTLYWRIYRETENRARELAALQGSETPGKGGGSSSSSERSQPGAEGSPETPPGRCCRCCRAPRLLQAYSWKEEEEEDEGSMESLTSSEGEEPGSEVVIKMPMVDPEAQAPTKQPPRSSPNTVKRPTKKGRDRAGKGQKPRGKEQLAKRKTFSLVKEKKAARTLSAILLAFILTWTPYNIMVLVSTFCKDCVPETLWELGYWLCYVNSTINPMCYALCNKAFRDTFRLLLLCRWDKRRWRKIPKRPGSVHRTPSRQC
- Test Description: mAChR M1 cell-based functional assay (calcium mobilization), PAM mode: increase in the EC20 acetylcholine response
Endpoint: EC50 (nM)
Numbers only, in nM.

The examples below pair each entry with its known result.
Structure Smiles String	Endpoint	Output Unit	Observed Measurement
[2H]C1([2H])c2ncccc2C(=O)N1Cc1c(F)cc(-c2cnc3nn(C)cc3c2)cc1F	EC50	nM	900
[2H]C1([2H])c2ncccc2C(=O)N1Cc1ccc(-c2cc(F)cc3nn(C)cc23)cc1	EC50	nM	472
[2H]C1([2H])c2ncccc2C(=O)N1Cc1c(F)cc(-c2ccnc3nn(C)cc23)cc1OCC(C)C	EC50	nM	207

Quick batch: EC50 for everything below.
1. [2H]C1([2H])c2ncccc2C(=O)N1Cc1c(F)cc(-c2ccc(C(F)F)c3nn(C)cc23)cc1F
2. [2H]C1([2H])c2ncccc2C(=O)N1Cc1c(F)cc(-c2ccc3nn(C)cc3c2)cc1OCC(C)C
3. [2H]C1([2H])c2ncccc2C(=O)N1Cc1c(F)cc(-c2cc(Cl)cc3nn(C)cc23)cc1F
4. [2H]C1([2H])c2ncccc2C(=O)N1Cc1ccc(-c2ccc3nn(C)cc3c2)cc1F

## Output
[490, 1290, 626, 686]

====

- System Under Test: human mAChR M1 (Homo sapiens, UniProt P11229)
- Test Description: mAChR M1 cell-based functional assay (calcium mobilization), PAM mode: increase in the EC20 acetylcholine response
- Method: Chinese hamster ovary (CHO-K1) cells stably expressing rat (r)M1 were purchased from the American Type Culture Collection and cultured according to their indicated protocol. […] Calcium flux was measured using the Functional Drug Screening System (FDSS) 6000 (Hamamatsu Corporation, Tokyo, Japan) as an increase in the fluorescent static ratio. […] Agonist activity was analyzed as a concentration-dependent increase in calcium mobilization upon compound addition. […]
For each record, write down the corresponding EC50.

Working through the 5 compounds below one at a time, give EC50 for each.
1. [2H]C1([2H])c2ncccc2C(=O)N1Cc1ccc(-c2cc3cn(C)nc3cc2C)cc1
2. [2H]C1([2H])c2ncc(OCCc3ccccn3)cc2C(=O)N1Cc1c(F)cc(-c2cccc3nn(C([2H])([2H])[2H])cc23)cc1F
3. [2H]C1([2H])c2ncccc2C(=O)N1Cc1c(F)cc(-c2ccc(OCCOC)c3nn(C)cc23)cc1C1CC1
4. [2H]C1([2H])c2ncccc2C(=O)N1Cc1c(Cl)cc(-c2cccc3nn(C)cc23)cc1Cl
5. [2H]C1([2H])c2ncccc2C(=O)N1Cc1c(F)cc(-c2cccc3c2cnn3C(F)F)cc1F [Compound 243]

## Output
> 10000 nM
423 nM
815 nM
900 nM
> 10000 nM
